// provenance: patent US20250090437A1

What Amount of moisture reduction per hour was measured for each of the following?
# assay: Water retention property test 3 (long term)
# Type: physicochemical
# setup conditions: 80 wt % aqueous solution; 40° C. and 25% RH; 24~96 h
Answers are plain numbers, in mg/h.

Would you please look over these solved cases?
CCCC[N+](CCCC)(CCCC)CCCC.[Br-] = 2.0
OCC(O)CO = 1.0
CC(O)C(=O)O.NC(CO)CO (stereo not shown) = 0.3

Alright, here's another molecule for you.
Request: Could you please provide reported Amount of moisture reduction per hour for CS(=O)(=O)O.NC(CO)CO ? Thanks!
Response: 0.3

* * *

Provide the reported Amount of moisture reduction per hour of each item.
# assay: Water retention property test 3 (long term)
# Assay type: physicochemical
# setup conditions: 80 wt % aqueous solution; 40° C. and 25% RH; 0~24 h
Give bare numbers, in mg/h.

Recorded results for 4 compounds are shown here.
CCCC[N+](CCCC)(CCCC)CCCC.[Br-] = 2.0
OCC(O)CO = 1.0
CCCCn1cc[n+](C)c1.F[B-](F)(F)F = 2.7
CS(=O)(=O)O.NC(CO)CO = 0.3

Now look at this one.
Request: Return Amount of moisture reduction per hour (reported value) for this compound: CC(O)C(=O)O.NC(CO)CO (centres unmarked)
Response: 0.3

* * *

# assay: Water retention property test 2 (hydrates)
# Type: physicochemical
# setup conditions: hydrate (anhydrides: aqueous solution at mono- to trihydrate concentration); unsealed, 24 hours at 40° C. and 25% RH
reported metric: Post-test moisture rate (%)
Numbers only, in %.

I have 3 compounds here; please give me Post-test moisture rate for each one.
1. CCCCn1cc[n+](C)c1.F[B-](F)(F)F [Comparative example C9]
2. C[N+](C)(C)CCO.O=[PH2][O-]
3. NC(CO)CO.O=C(O)CO

Response:
11.2
9.3
17.3

* * *

# assay: Water retention property test 1
# Type: physicochemical
# setup conditions: 80 wt % aqueous solution; unsealed, 24 hours at 40° C. and 25% RH
reported metric: Post-test moisture rate (%)
One number for each entry, in %.

Example entries and their recorded answers appear below.
CCCCn1cc[n+](C)c1.F[B-](F)(F)F [Compound C63, reference compound] = 11.7
CC(CO)(CO)CO [Compound C51] = 19.1
CCC(O)C(O)C(O)C(O)CO (stereo not shown) = 19.7

Please find the next compound below.
Request: Return Post-test moisture rate (reported value) for this compound: CCCC[N+](CCCC)(CCCC)CCCC.[Br-] [Compound A54, tetrabutylammonium bromide, reference compound]
Response: 15.3

* * *

# assay: Water retention property test 2 (hydrates)
# Type: physicochemical
# setup conditions: hydrate (anhydrides: aqueous solution at mono- to trihydrate concentration); unsealed, 24 hours at 40° C. and 25% RH
Criterion: Rate of reduction in moisture strictly less than 3%. Met: TRUE. Not met: FALSE.

// below: answered molecules
F[B-](F)(F)F.[NH3+]C(CO)CO = FALSE
C[N+](C)(C)CCO.O=C1OC(C(O)CO)C([O-])=C1O (stereo not shown) = TRUE
C[N+](C)(C)CCO.O=[PH2][O-] = TRUE
O=C(O)CCC(=O)O.OCCNCCO = FALSE
NCC(O)C(O)C(O)C(O)CO.O=C1OC(C(O)CO)C(O)=C1O (stereo not shown) = TRUE

Request: Lab note: Rate of reduction in moisture threshold 3%. Does this molecule come in strictly under it? CC(O)C(=O)O.NCC(O)C(O)C(O)C(O)CO (stereo not shown)
Response: TRUE

Request: Would you kindly verify if Rate of reduction in moisture of CC(N)(CO)CO.O=C1O[C@H]([C@@H](O)CO)C(O)=C1O is strictly less than 3%?
Response: TRUE

Request: Quick check: Rate of reduction in moisture of CCCCn1cc[n+](C)c1.F[B-](F)(F)F [Comparative example C9] under 3%?
Response: FALSE
